pIC50 values by entry
target: NRAS WT (Homo sapiens (Human), UniProt P01111+P62937); experiment: Ras-Raf (BRAF RBD) disruption / FRET / MOA assay, NRAS WT; format: biochemical; conditions: read-out: IC50* NRAS WT FRET data
Sequence (P01111 whole entry, one chain of several): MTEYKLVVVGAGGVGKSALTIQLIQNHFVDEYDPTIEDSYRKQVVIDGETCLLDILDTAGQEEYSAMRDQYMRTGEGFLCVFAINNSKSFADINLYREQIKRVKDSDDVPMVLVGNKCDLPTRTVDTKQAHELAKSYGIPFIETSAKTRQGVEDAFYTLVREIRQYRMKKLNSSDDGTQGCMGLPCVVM
pIC50: −log10 of the molar value.

Consider the reported pIC50 for these compounds:
C=CC(=O)N1C[C@@H](C)N(C(=O)N(C)[C@H](C(=O)N[C@H]2Cc3nc(cs3)-c3ccc4c(c3)c(c(-c3cccnc3[C@H](C)OC)n4CC)CC(C)(C)COC(=O)[C@@H]3CCCN(N3)C2=O)C(C)C)[C@H](C)C1 (atropisomer, axis not shown); > 8.00
CCn1c(-c2cccnc2[C@H](C)OC)c2c3cc(ccc31)-c1csc(n1)C[C@H](NC(=O)CCOC1CN(C(=O)C#CC(C)(C)N(C)C)C1)C(=O)N1CCC[C@H](N1)C(=O)OCC(C)(C)C2 (atropisomer, axis not shown); 5.00 to 6.00

Consider now this further compound.
Name the recorded pIC50 of the item C=CS(=O)(=O)N1CC2(CCN([C@H](C(=O)N[C@H]3Cc4cc(O)cc(c4)-c4ccc5c(c4)c(c(-c4cccnc4[C@H](C)OC)n5CC)CC(C)(C)COC(=O)[C@@H]4CCCN(N4)C3=O)C(C)C)C2=O)C1 (atropisomer, axis not shown) in your answer.
7.00 to 8.00

----------
pIC50 values by entry
biological target: K-Ras G13C (Homo sapiens (Human), UniProt P01116+P62937, G13C); experiment: Ras-Raf (BRAF RBD) disruption / FRET / MOA assay, KRAS G13C; format: biochemical; details: KRAS G13C; Ras-Raf disruption/FRET/MOA assay; read-out: IC50* KRAS G13C FRET data
Sequence (P01116-2 other isoform, or with tags, fused parts or gaps G13C, one chain of several): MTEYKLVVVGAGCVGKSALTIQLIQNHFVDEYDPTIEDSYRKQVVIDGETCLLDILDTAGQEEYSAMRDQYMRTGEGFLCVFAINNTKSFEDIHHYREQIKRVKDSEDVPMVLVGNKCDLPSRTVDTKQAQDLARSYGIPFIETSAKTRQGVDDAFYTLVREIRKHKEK
pIC50: −log10 of the molar value.

Consider the reported pIC50 for these compounds:
C=CC(=O)N1CC(OC(=O)N(C)[C@H](C(=O)N[C@H]2Cc3cccc(c3)-c3ccc4c(c3)c(c(-c3cccnc3[C@H](C)OC)n4CC)CC(C)(C)COC(=O)[C@@H]3CCCN(N3)C2=O)C(C)C)C1 (atropisomer, axis not shown); 6.00 to 7.00
CCn1c(-c2cccnc2COC)c2c3cc(ccc31)-c1cc(O)cc(c1)C[C@H](NC(=O)[C@H](C(C)C)N(C)C(=O)[C@H]1CCN(C(=O)/C=C/CN(C)C)C1)C(=O)N1CCC[C@H](N1)C(=O)OCC(C)(C)C2; 6.00 to 7.00
CCn1c(-c2cccnc2[C@H](C)OC)c2c3cc(ccc31)-c1csc(n1)C[C@H](NC(=O)[C@@H](COC1CN(C(=O)C#CC(C)(C)N(C)C)C1)C(C)C)C(=O)N1CCC[C@H](N1)C(=O)OCC(C)(C)C2 (atropisomer, axis not shown); 5.00 to 6.00

Consider now this further compound.
Name the recorded pIC50 of the item C=CC(=O)N1CC[C@H](C(=O)N(C)[C@H](C(=O)N[C@H]2Cc3cccc(c3)-c3ccc4c(c3)c(c(-c3cc(C5CCN(C)CC5)cnc3[C@H](C)OC)n4CC)CC(C)(C)COC(=O)[C@@H]3CCCN(N3)C2=O)C(C)C)C1 (atropisomer, axis not shown) [Example A515] in your answer.
6.00 to 7.00

----------
target: KRAS G13D (Homo sapiens (Human), UniProt P01116+P62937, G13D); assay: Ras-Raf (BRAF RBD) disruption / FRET / MOA assay, KRAS G13D; type: biochemical; conditions: read-out: IC50* KRAS G13D FRET data
Sequence (P01116-2 other isoform, or with tags, fused parts or gaps G13D): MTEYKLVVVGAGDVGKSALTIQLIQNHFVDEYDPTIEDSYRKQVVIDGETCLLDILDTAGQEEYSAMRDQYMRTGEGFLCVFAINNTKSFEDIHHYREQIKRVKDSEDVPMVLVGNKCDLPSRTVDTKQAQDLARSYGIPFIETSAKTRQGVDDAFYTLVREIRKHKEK
Sequence (P62937 whole entry): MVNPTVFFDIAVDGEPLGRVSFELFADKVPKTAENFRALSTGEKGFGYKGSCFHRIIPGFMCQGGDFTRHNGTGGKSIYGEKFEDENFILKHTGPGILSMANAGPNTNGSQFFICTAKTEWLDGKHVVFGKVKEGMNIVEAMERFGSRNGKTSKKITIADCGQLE
IC50 values by entry

Name the recorded IC50 of the item CO[C@@H](C)c1ncccc1-c1c2c3cc(ccc3n1CC(F)(F)F)-c1csc(n1)C[C@H](NC(=O)CCOC1CN(C(=O)C#CC(C)(C)N(C)C)C1)C(=O)N1CCC[C@H](N1)C(=O)OCC(C)(C)C2 (atropisomer, axis not shown) in your answer.
1000 to 10000 nM

Name the recorded IC50 of the item C=CC(=O)Nc1ccc(C(=O)N(C)[C@H](C(=O)N[C@H]2Cc3cc(O)cc(c3)-c3ccc4c(c3)c(c(-c3cccnc3[C@H](C)OC)n4CC)CC(C)(C)COC(=O)[C@@H]3CCCN(N3)C2=O)C(C)C)nc1 (atropisomer, axis not shown) in your answer.
100 to 1000 nM

Name the recorded IC50 of the item C=CC(=O)N1CC2(C1)CN(C(=O)N(C)[C@H](C(=O)N[C@H]1Cc3nc(cs3)-c3ccc4c(c3)c(c(-c3cccnc3[C@H](C)OC)n4CC)CC(C)(C)COC(=O)[C@@H]3CCCN(N3)C1=O)C(C)C)C2 (atropisomer, axis not shown) in your answer.
1000 to 10000 nM

Name the recorded IC50 of the item `C=CC(=O)N1CC[C@H](C(=O)N(C)[C@H](C(=O)N[C@H]2Cc3cc(O)cc(c3)-c3ccc4c(c3)c(c(-c3ccc(COC)cc3CN(C)C)n4CC)CC(C)(C)COC(=O)[C@@H]3CCCN(N3)C2=O)C(C)C)C1` in your answer.
1000 to 10000 nM

Name the recorded IC50 of the item CO[C@@H](C)c1ncccc1-c1c2c3cc(ccc3n1CC(F)(F)F)-c1csc(n1)C[C@H](NC(=O)CCOC1CN(C(=O)C#CC(C)(C)N3CCC3)C1)C(=O)N1CCC[C@H](N1)C(=O)OCC(C)(C)C2 (atropisomer, axis not shown) in your answer.
1000 to 10000 nM

----------
target: KRAS G13D (Homo sapiens (Human), UniProt P01116+P62937, G13D); test: Ras-Raf (BRAF RBD) disruption / FRET / MOA assay, KRAS G13D; assay type: biochemical; details: read-out: IC50* KRAS G13D FRET data
propertyName: IC50

Consider the reported IC50 for these molecules:
CCn1c(-c2cccnc2COC)c2c3cc(ccc31)-c1cc(O)cc(c1)C[C@H](NC(=O)[C@@H](C(C)C)N(C)C(=O)[C@H]1C[C@@H](C)N(C(=O)C#CCN(C)C)C1)C(=O)N1CCC[C@H](N1)C(=O)OCC(C)(C)C2 [Example A165]; > 10000 nM
C=CC(=O)N1CC[C@H](C(=O)N(C)[C@H](C(=O)N[C@H]2Cc3cccc(c3)-c3ccc4c(c3)c(c(-c3cnccc3[C@H](C)OC)n4CC)CC(C)(C)COC(=O)[C@@H]3CCCN(N3)C2=O)C(C)C)C1 [Example A122]; > 10000 nM
C=CC(=O)N1CCOC2(CCN(C(=O)N(C)[C@H](C(=O)N[C@H]3Cc4nc(cs4)-c4ccc5c(c4)c(c(-c4cccnc4[C@H](C)OC)n5CC)CC(C)(C)COC(=O)[C@@H]4CCCN(N4)C3=O)C(C)C)CC2)C1 (atropisomer, axis not shown) [Example A695]; 100 to 1000 nM

Consider now this further molecule.
Name the recorded IC50 of the item C=CC(=O)N(C)[C@@H]1CCN(C(=O)N(C)[C@H](C(=O)N[C@H]2Cc3nc(cs3)-c3ccc4c(c3)c(c(-c3cccnc3[C@H](C)OC)n4CC)CC(C)(C)COC(=O)[C@@H]3CCCN(N3)C2=O)C(C)C)C1 (atropisomer, axis not shown) [Example A416] in your answer.
100 to 1000 nM

----------
IC50 values by entry
target: KRAS G13D (Homo sapiens (Human), UniProt P01116+P62937, G13D); test: Ras-Raf (BRAF RBD) disruption / FRET / MOA assay, KRAS G13D; type: biochemical; conditions: read-out: IC50* KRAS G13D FRET data

C=CC(=O)N1CC2CCC1CN2C(=O)N(C)[C@H](C(=O)N[C@H]1Cc2nc(cs2)-c2ccc3c(c2)c(c(-c2cccnc2[C@H](C)OC)n3CC)CC(C)(C)COC(=O)[C@@H]2CCCN(N2)C1=O)C(C)C; 1 to 10 µM
CCn1c(-c2cncnc2)c2c3cc(ccc31)-c1cccc(c1)C[C@H](NC(=O)[C@H](C(C)C)N(C)C(=O)[C@H]1CCN(C(=O)C#CCN(C)C)C1)C(=O)N1CCC[C@H](N1)C(=O)OCC(C)(C)C2; 1 to 10 µM
C=CC(=O)N1CC[C@H](C(=O)N(C)[C@H](C(=O)N[C@H]2Cc3csc(n3)-c3ccc4c(c3)c(c(-c3cc(N5CCN(C)CC5)cnc3[C@H](C)OC)n4CC(F)(F)F)CC(C)(C)COC(=O)[C@@H]3CCCN(N3)C2=O)C(C)C)C1; 0.1 to 1 µM

Provide measured IC50 on KRAS G13D (Homo sapiens (Human), UniProt P01116+P62937, G13D) for C=CC(=O)N1CC[C@H](C(=O)N(C)[C@H](C(=O)N[C@H]2Cc3coc(n3)-c3ccc4c(c3)c(c(-c3cccnc3[C@H](C)OC)n4CC)CC(C)(C)COC(=O)[C@@H]3CCCN(N3)C2=O)C(C)C)C1 (atropisomer, axis not shown) please.
1 to 10 µM

Provide measured IC50 on KRAS G13D (Homo sapiens (Human), UniProt P01116+P62937, G13D) for CCn1c(-c2cccnc2[C@H](C)OC)c2c3cc(ccc31)-c1cc(cc(C(F)F)c1)C[C@H](NC(=O)[C@H](C(C)C)N(C)C(=O)[C@H]1CCN(C(=O)C#CC(C)(C)N3CCC3)C1)C(=O)N1CCC[C@H](N1)C(=O)OCC(C)(C)C2 (atropisomer, axis not shown) please.
1 to 10 µM

Provide measured IC50 on KRAS G13D (Homo sapiens (Human), UniProt P01116+P62937, G13D) for `C=CC(=O)N1CCC2(C1)CN(C(=O)N(C)[C@H](C(=O)N[C@H]1Cc3nc(cs3)-c3ccc4c(c3)c(c(-c3cccnc3[C@H](C)OC)n4CC(F)(F)F)CC(C)(C)COC(=O)[C@@H]3CCCN(N3)C1=O)C(C)C)C2` please.
0.1 to 1 µM

Provide measured IC50 on KRAS G13D (Homo sapiens (Human), UniProt P01116+P62937, G13D) for CO[C@@H](C)c1ncccc1-c1c2c3cc(ccc3n1CC(F)(F)F)-c1cc(F)cc(c1)C[C@H](NC(=O)[C@@H](COC1CN(C(=O)C#CC(C)(C)N(C)C)C1)C(C)C)C(=O)N1CCC[C@H](N1)C(=O)OCC(C)(C)C2 (atropisomer, axis not shown) please.
> 10 µM

Provide measured IC50 on KRAS G13D (Homo sapiens (Human), UniProt P01116+P62937, G13D) for C=CC(=O)N(C)CCN1CCN(C(=O)N(C)[C@H](C(=O)N[C@H]2Cc3nc(cs3)-c3ccc4c(c3)c(c(-c3cccnc3[C@H](C)OC)n4CC)CC(C)(C)COC(=O)[C@@H]3CCCN(N3)C2=O)C(C)C)CC1 (atropisomer, axis not shown) please.
1 to 10 µM
